Provide the reported melting point of each item.

The compound identified as Cc1cnc2c(C#N)c(-c3ccc(S(=O)(=O)N[C@@H](C)C(F)(F)F)cn3)n(-c3ccc(F)cn3)c2c1 registered its melting point at 263 to 265 °C

Measured melting point of CCc1nc2c(cc1OC)c(C#N)c(-c1ccc(S(=O)(=O)N[C@H](C)C(F)(F)F)cn1)n2C1CCC1 : 189 to 199 °C

Entry C[C@H](NS(=O)(=O)c1ccc(-c2c(C#N)c3cc(Cl)cnc3n2-c2ccccn2)nc1)C(F)(F)F , melting point reported as 179 to 181 °C

// melting point value for CC(C)(C)NS(=O)(=O)c1ccc(-c2c(C#N)c3cc(C(F)(F)F)cnc3n2C2CCC2)nc1 : 176 to 178 °C

Recorded result, CC1(NS(=O)(=O)c2ccc(-c3c(C#N)c4cc(C(F)(F)F)cnc4n3C3CCCCC3)cc2)CC1 , melting point: 173 to 175 °C

// melting point value for Cc1cnc2c(C#N)c(-c3ccc(S(=O)(=O)N[C@H](C)C(F)(F)F)cn3)n(C3CCCC3)c2c1 : 215 to 217 °C

Short answer for CC(C)(C)S(=O)(=O)Nc1ccc(-c2c(C#N)c3ncc(Cl)cc3n2C2CCCCC2)cc1 : melting point was 279 to 283 °C

====

REPORTED ENDPOINT: melting point

The compound CCc1cnc2c(c1)c(C#N)c(-c1ccc(S(=O)(=O)NC3(C(F)(F)F)CC3)cn1)n2C1CCC1 showed melting point equal to 216 to 221 °C

get_value(item= C[C@H](NS(=O)(=O)c1ccc(-c2c(C#N)c3cc(F)cnc3n2-c2ncccn2)nc1)C(F)(F)F , readout=melting point) returns 171 to 173 °C

In plain terms, C[C@H](NS(=O)(=O)c1ccc(-c2c(C#N)c3cc(C4CC4)ncc3n2C2CCC2)cc1)C(F)(F)F has a documented melting point of 190 to 195 °C

The reported value for N#Cc1c(-c2ccc(S(=O)(=O)NC3(C(F)(F)F)CC3)cn2)n(C2CCCCC2)c2ncc(C(F)(F)F)cc12 in terms of melting point is 192 to 193 °C

Measured melting point of N#Cc1c(-c2ccc(S(=O)(=O)NC3(C(F)(F)F)CC3)cn2)n(C2CCC2)c2ncc(C(F)(F)F)cc12 : 156 to 158 °C

Sample Cc1cnc2c(c1)c(C#N)c(-c1ccc(S(=O)(=O)N[C@H](C)C(F)(F)F)cn1)n2C1CCC1 ; melting point observed: 176 to 178 °C

Cc1cnc2c(C#N)c(-c3ccc(S(=O)(=O)NC(C)(C)C)cn3)n(C3CCC3)c2c1 has a reported melting point of 227 to 229 °C

Cc1cnc2c(c1)c(C#N)c(-c1ccc(S(=O)(=O)NC(C)(C)C)cn1)n2-c1ccccc1 has a reported melting point of 228.6 to 229.3 °C

Cc1cnc2c(c1)c(C#N)c(-c1ccc(S(=O)(=O)N[C@@H](C)C(F)(F)F)cn1)n2-c1ccc(F)cc1 yielded melting point of 253 to 254 °C

The recorded melting point for entry CCc1cc2c(C#N)c(-c3ccc(NS(=O)(=O)C(C)C)cc3)n(C3CCC3)c2cn1 equals 160 to 165 °C

Notebook: CC1(S(=O)(=O)Nc2ccc(-c3c(C(N)=O)c4cc(C(F)(F)F)cnc4n3C3CCCCC3)cc2)CC1 , melting point read as 268 to 270 °C

What the record says about CCc1cnc2c(c1)c(C#N)c(-c1ccc(S(=O)(=O)N[C@@H](C)C(F)(F)F)cn1)n2-c1ncc(F)cn1 : melting point is 175 to 177 °C

Given item Cc1cnc2c(c1)c(C#N)c(-c1ccc(S(=O)(=O)NC3(C(F)(F)F)CC3)cc1)n2C1CCC1 , the value recorded as its melting point is 187 to 188 °C

Field melting point (entry N#Cc1c(-c2ncc(S(=O)(=O)NC(CF)CF)cn2)n(C2CCCC2)c2cc(Cl)ncc12 ) reads 224 to 226 °C

Noted for COc1cnc2c(c1)c(C#N)c(-c1ccc(S(=O)(=O)N[C@@H](C)C(F)(F)F)cn1)n2-c1cnccn1 : its melting point reads 220 to 225 °C

====

Record form. Attribute: melting point. Fill in for each entry.

The reported melting point of the molecule CC(C)(C)NS(=O)(=O)c1ccc(-c2c(C#N)c3cc(F)cnc3n2-c2ccccc2)nc1 [Cpd 519] was 239.4 to 241.5 °C

# molecule C[C@H](NS(=O)(=O)c1ccc(-c2c(C#N)c3cc(Br)cnc3n2-c2cnccn2)nc1)C(F)(F)F [Cpd 340] ; its melting point = 247 to 248 °C

Lookup result for Cc1cnc2c(C#N)c(-c3ccc(S(=O)(=O)N[C@@H](C)C(F)(F)F)cn3)n(-c3cccnc3)c2c1 [Cpd 466] ; measured melting point: 278 to 279 °C

Field melting point (entry C[C@@H](NS(=O)(=O)c1ccc(-c2c(C#N)c3cc(N4CCCC4)cnc3n2C2CCC2)nc1)C(F)(F)F [Cpd 240] ) reads 207 to 209 °C

Query CC(C)(C)NS(=O)(=O)c1ccc(-c2c(C#N)c3cc(Cl)cnc3n2C2CCC2)cc1 [Cpd 371] yields melting point of 244 to 246 °C

Per the record, CC(C)NS(=O)(=O)c1ccc(-c2c(C#N)c3cc(Cl)cnc3n2C2CCC2)cc1 [Cpd 6] has melting point of 172 to 175 °C

Record summary for Cc1cnc2c(c1)c(C#N)c(-c1ccc(S(=O)(=O)N[C@@H](C)C(F)(F)F)cn1)n2-c1ccc(F)cn1 [Cpd 432] : reported melting point = 199 to 200 °C

Entry CC(C)(NS(=O)(=O)c1ccc(-c2c(C#N)c3cc(C(F)(F)F)cnc3n2C2CCC2)nc1)C(F)(F)F [Cpd 395] ; melting point = 174 to 176 °C

====

REPORTED ENDPOINT: melting point

melting point recorded for this compound, C[C@H](NS(=O)(=O)c1ccc(-c2c(C#N)c3cnc(Cl)cc3n2C2CCC2)cc1)C(F)(F)F [Cpd 102] , is 202 to 203 °C

The recorded melting point for Cc1cnc2c(c1)c(C#N)c(-c1ccc(S(=O)(=O)N[C@@H](C)C(F)(F)F)cn1)n2-c1cc(C(F)(F)F)ccn1 [Cpd 433] is 192 to 194 °C

Memo: COc1ccc2c(n1)c(C#N)c(-c1ccc(S(=O)(=O)NC(CF)CF)cn1)n2C1CCC1 [Cpd 15] , reported melting point: 199 to 201 °C

Documented melting point of CCc1cnc2c(c1)c(C#N)c(-c1ccc(S(=O)(=O)NC3(C(F)(F)F)CC3)cc1)n2C1CCC1 [Cpd 183] : 161 to 168 °C

Lab book: melting point of CCc1cnc2c(c1)c(C#N)c(-c1ccc(S(=O)(=O)N[C@@H](C)C(F)(F)F)cn1)n2-c1ccccc1 [Cpd 413] noted as 135 to 140 °C

Reported melting point of Cc1cnc2c(C#N)c(-c3ccc(S(=O)(=O)NC4(C)CC4)cn3)n(C3CCCC3)c2c1 [Cpd 174] : 215 to 217 °C

Measured melting point, CC1(NS(=O)(=O)c2cnc(-c3c(C#N)c4cc(C#N)cnc4n3C3CCC3)nc2)CC1 [Cpd 114] : 229 to 231 °C

====

REPORTED ENDPOINT: melting point

Query NC(=O)c1c(-c2ccc(S(=O)(=O)NC3(C(F)(F)F)CC3)cc2)n(C2CCC2)c2ncc(Cl)cc12 yields melting point of 271 to 272 °C

// CCCOc1cnc2c(c1)c(C#N)c(-c1ccc(S(=O)(=O)N[C@H](C)C(F)(F)F)cn1)n2C1CCC1 : melting point value = 169 to 170 °C

Input Cc1cc2c(cn1)c(C#N)c(-c1ccc(S(=O)(=O)N[C@@H](C)C(F)(F)F)cc1)n2C1CCC1 . Output melting point: 248 to 249 °C

Given item Cc1cc(-c2c(C#N)c3cc(Cl)cnc3n2C2CCCC2)ncc1S(=O)(=O)N[C@@H](C)C(F)(F)F , the value recorded as its melting point is 190 to 195 °C

NC(=O)c1c(-c2ccc(NS(=O)(=O)C3CCC3)cc2)n(C2CCCCC2)c2ncc(C(F)(F)F)cc12 yielded melting point of 256 to 258 °C

Value of melting point reported for the compound C[C@H](NS(=O)(=O)c1ccc(-c2c(C#N)c3cccnc3n2C2CCCC2)nc1)C(F)(F)F is 157 to 159 °C

Lab book: melting point of Cc1cnc2c(c1)c(C#N)c(-c1ccc(S(=O)(=O)N[C@@H](C)C(F)(F)F)cc1)n2CC(C)C noted as 168 to 176 °C

For reference, reported melting point for Cc1cnc2c(C#N)c(-c3ccc(S(=O)(=O)N[C@@H](C)C(F)(F)F)cc3)n(C3CCCC3)c2c1 stands at 278 to 279 °C

The compound listed as Cc1cnc2c(c1)c(C#N)c(-c1ccc(S(=O)(=O)N[C@@H](C)C(F)(F)F)cn1)n2-c1cc(N)ccn1 shows melting point equal to 202 to 203 °C
